biological target: bovines pankreatisches Trypsin (Bos taurus); construct: purchased Sigma; host or cells: bovine pancreas; test: Inhibition constants (Ki), chromogenic substrate S-2238, trypsin; format: biochemical, bovin; settings: pH 7.5, 25°C, 0.1 M phosphate buffer
Sequence (P00760 24-246): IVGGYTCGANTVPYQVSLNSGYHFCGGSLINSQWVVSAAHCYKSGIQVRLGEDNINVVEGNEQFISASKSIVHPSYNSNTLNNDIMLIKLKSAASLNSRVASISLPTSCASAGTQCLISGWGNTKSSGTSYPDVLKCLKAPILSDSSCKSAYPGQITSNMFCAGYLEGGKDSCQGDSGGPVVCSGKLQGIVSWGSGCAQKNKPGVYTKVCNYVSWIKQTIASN
endpointLabel: Ki

Query string: Quick check: Ki on bovines pankreatisches Trypsin (Bos taurus), item COc1ccc(C(=O)Nc2ccccc2NC(=O)c2ccc(C(N)=S)cc2)cc1 [Beispiel 3] ?
Result string: > 100 µM

----------
target: Humanes α-Thrombin (Homo sapiens, UniProt P00734); construct: Humanes α-Thrombin; purchased Sigma; experiment: Inhibition constants (Ki), chromogenic substrate S-2238, thrombin; assay type: biochemical; conditions: pH 7.5, 25°C, 0.1 M phosphate buffer
endpointLabel: Ki

Query string: Which measured Ki value corresponds to COc1ccc(C(=O)Nc2ccccc2NC(=O)c2ccc(C(N)=S)cc2)cc1 [Beispiel 3] ?
Result string: > 100 µM
